B1: KIAA1614 peptide 568-583 (uncharacterized protein KIAA1614), 16-mer library wild type / USP8 rhodanese domain (ubiquitin carboxyl-terminal hydrolase 8, residues 174-317) (parent)
chain 1: GMERVLGGLSSPLRLL
chain 2: KCETKEKGAITAKELYTMMTDKNISLIIMDARRMQDYQDSCILHSLSVPEEAISPGVTASWIEAHLPDDSKDTWKKRGNVEYVVLLDWFSSAKDLQIGTTLRSLKDALFKWESKTVLRNEPLVLEGGYENWLLCYPQYTTNAKV

- Variants of: B1
- test: peptide-phage display deep mutational scan (M13, 16-mer library, displayed with a C-terminal GGGSG linker encoded by the 3' flank) selected against the GST-tagged USP8 rhodanese domain, four rounds; NGS counts summed over selection …
- statedConditions: with USP8 rhodanese domain (ubiquitin carboxyl-terminal hydrolase 8, residues 174-317), 10 µg GST-bait on MaxiSorp, pre-cleared on GST, 2 h at 4 °C, five washes with 0.05% Tween 20 in PBS, not graded, scale: average over two replicas of the peptide's fractional NGS count
Please provide measured screen value for the entries that follow.

| mutationSpec | outcomeMeasure | val |
| --- | --- | --- |
| chain 1 L13V | screen value | 0.000364 |
| chain 1 L6T | screen value | 5.05e-05 |
| chain 1 M2F | screen value | 0.00131 |

Give screen value for all variants that follow.
1. chain 1 V5N
2. chain 1 M2P
3. chain 1 V5S
4. chain 1 L13A

Result:
[0.00579, 0.0198, 0.000158, "4.42e-05"]
